- Test system: HOP-92 NSCLC
- Procedure text: NCI-60 one-dose screen, 48 h
- Experimental parameters: 10 µM unless noted
Compounds without any hit were thinned out: in the full panel of roughly 83,000, 20% have a hit. Activity calls are given as the source filed them. How the source made its calls: active means growth percent below 10; inactive means the rest.
Permitted responses: active, inactive

{"columns": ["Compound", "Group label"],
 "data": [
  ["CCCCCCCC[n+]1ccc2ccccc2c1", "inactive"],
  ["Fc1ccc2c(c1)c(-c1nc(-c3c[nH]c4ncccc34)cs1)cn2CCN1CCOCC1", "inactive"],
  ["Cc1ccc(Nc2nc3c(s2)C2=CC[C@@H]4[C@H](CC[C@]5(C)C(=O)CC[C@@H]45)[C@@]2(C)CC3)cc1", "inactive"]
]}

Check the results log: what was the call for CC(=O)O[C@H](C[C@H](C(C)C)N(C)C(=O)[C@@H](NC(=O)[C@H]1CCCN1C)C(C)C)c1nc(C(=O)N[C@@H](Cc2ccccc2)C[C@H](C)C(=O)O)c(C)s1 ? inactive

Check the results log: what was the call for Fc1ccc2c(c1)c(-c1nc(-c3c[nH]c4ncccc34)cs1)cn2CCCCN1CCCCC1 ? active

---

- System: HCT-15 colon
- Procedure text: NCI-60 one-dose screen, 48 h (100 = growth as untreated, 0 = no growth, -100 = all killed)
- Experimental parameters: 10 µM unless noted
Compounds without any hit were thinned out: in the full panel of roughly 83,000, 20% have a hit.
Measured quantity: growth (%)
# output: bare number, implied unit %

Answered examples (6):
{"columns": ["Molecule", "Unit of measurement", "growth"],
 "data": [
  ["Fc1c[c-]c(-c2ccccn2)c(F)c1.[CH3-].[Pt+2].c1ccc([PH+](c2ccccc2)c2ccccn2)cc1", "%", -36.7],
  ["O=C1OCC2=C1C(c1ccccc1)c1cc3c(cc1N2)OCO3 (configuration not stated)", "%", 10.9],
  ["CC[C@H](C)[C@H](NC(=O)c1nccn1C)C(=O)N(C)[C@H](C[C@@H](OC(C)=O)c1nc(C(=O)N[C@@H](Cc2ccccc2)C[C@H](C)C(=O)OC)cs1)C(C)C", "%", 10.5],
  ["COc1cc([C@@H]2c3cc4c(cc3[C@H](OC(C)=O)[C@H]3COC(=O)[C@H]23)OCO4)cc(OC)c1OC", "%", 9.64],
  ["CC(=O)OC1C(OC/C2=C/C3[C@@H](C(C)C)CC=C(C)[C@@H]3CC(OC(=O)/C=C/c3cn(C)cn3)[C@]3(C)C=C[C@@]2(O)O3)OCC(O)C1O (some centres not stated)", "%", 36.2],
  ["CCC(C)(C)[C@H](NC(=O)[C@H]1CCCCN1C)C(=O)N(C)[C@H](C[C@@H](OC(C)=O)c1nc(C(=O)N[C@@H](Cc2ccccc2)C[C@H](C)C(=O)O)cs1)C(C)C", "%", 6.87]
]}

Here is the next item to consider.
Data request, read-out growth, for CC1(C)C(C(=O)c2cn(CCCCF)c3ccccc23)C1(C)C 91.9

---

- Test system: M14 melanoma
- Procedure text: NCI-60 one-dose screen, 48 h
- Experimental parameters: 10 µM unless noted
The panel holds about 83,000 compounds, 20% with a hit somewhere; the sample as a whole holds those more often. Calls of active or inactive are those of the source. How the source made its calls: active means growth percent below 10; inactive means the rest.
Permitted responses: TRUE = active, FALSE = inactive

Check the results log: what was the call for C[C@@]12CC[C@@H](O)C[C@@H]1CC[C@H]1[C@H]2CC[C@@]2(C)[C@H](c3ccc(=O)oc3)CC[C@@]12O ? TRUE

Check the results log: what was the call for C#Cc1ccc2c(c1)C(c1ccccc1F)=NCC(=O)N2C ? FALSE

Check the results log: what was the call for C[n+]1c(/C=C/c2ccc(N(CCCl)CCCl)cc2)sc2ccccc21 ? FALSE

Check the results log: what was the call for CCOC(=O)[C@@H](C)C[C@H](Cc1ccccc1)NC(=O)c1nc([C@@H](C[C@H](C(C)C)N(C)C(=O)[C@@H](NC(=O)[C@H]2CCCCN2C)C(C)C)OC(C)=O)sc1CCOCc1ccccc1 ? TRUE

Check the results log: what was the call for COc1ccc(S(=O)(=O)N(Cc2ccc3c(c2)C=CC(C)(C)O3)c2ccccc2)cc1OC ? FALSE

Check the results log: what was the call for CCOC(=O)[C@@H](C)C[C@H](Cc1ccccc1)NC(=O)c1csc([C@@H](C[C@H](C(C)C)N(C)C(=O)[C@@H](NC(=O)[C@H]2CCCCN2C)C(C)(C)CC)OC(C)=O)n1 ? TRUE

Check the results log: what was the call for CCCOC(=O)N[C@H]1CCc2c(Br)c(OC)c(OC)c(OC)c2-c2ccc(SC)c(=O)cc21 ? TRUE

Check the results log: what was the call for O=C1NC(=O)C(=Cc2cccn2CCCCCn2c3ccccc3c(=O)c3ccccc32)C(=O)N1 ? FALSE

Check the results log: what was the call for O=C1OCCC1Br (centres undefined) ? FALSE

---

Here, each record is paired with measured growth data.
- Test system: SR leukemia
- Procedure text: NCI-60 one-dose screen, 48 h (100 = growth as untreated, 0 = no growth, -100 = all killed)
- Experimental parameters: 10 µM unless noted
Compounds without any hit were thinned out: in the full panel of roughly 83,000, 20% have a hit.
# output: bare number, implied unit %

Answered examples (8):
{"columns": ["Molecule", "Value"],
 "data": [
  ["CNC(=O)Oc1cccc(C(F)(F)F)c1", 111],
  ["CC(=O)O[C@H](C[C@H](C(C)C)N(C)C(=O)[C@@H](NC(=O)[C@H]1CCCCN1C)C(C)C)c1nc(C(=O)NC2CCC(C(=O)O)CC2)cs1 (some centres undefined)", 22.3],
  ["COc1ccc(-n2c(C)nc3cc(OC)c(OC)cc3c2=O)cc1OC", 95.5],
  ["Nc1ccc2c(c1)oc1ccccc12", 91],
  ["CC(C)OC(=O)[C@H](C)NP(=O)(Oc1ccccc1)C1CCCN(O)C1=O (some centres undefined)", 89.6],
  ["CC[C@H](C)[C@H](NC(=O)c1cccn1C)C(=O)N(C)[C@H](C[C@@H](OC(C)=O)c1nc(C(=O)N[C@@H](Cc2ccccc2)C[C@H](C)C(=O)OC)cs1)C(C)C", 14.4],
  ["O[C@H](CN1CC1)[C@@H](O)CN1CC1", 16.9],
  ["C=C1C[C@](OC)([C@H](O)C(=O)N[C@@H](OC)[C@@H]2C[C@@H](O)C(C)(C)[C@@H](C[C@@H](COC)OC)O2)O[C@H](C)[C@@H]1C", -39.2]
]}

Here is the next item to consider.
# get_value(readout= growth, system= SR leukemia) for C/C(=C\c1ccn(-c2ccc(N)c(F)c2)n1)[C@@H]1C[C@@H]2O[C@]2(C)CCC[C@H](C)[C@H](O)[C@@H](C)C(=O)C(C)(C)[C@@H](O)CC(=O)O1 9.07

---

- System: UACC-257 melanoma
- Procedure text: NCI-60 one-dose screen, 48 h (100 = growth as untreated, 0 = no growth, -100 = all killed)
- Experimental parameters: 10 µM unless noted
About 83,000 compounds went through this panel and 20% of them were active in at least one assay; those are over-represented in the sample as a whole.
Each entry falls into one class according to its growth; the ranges are label 0 (below 60%), label 1 (60% to below 90%), label 2 (90% or more)

{"columns": ["Molecule", "Group label"],
 "data": [
  ["CCOC(=O)[C@@H](C)C[C@H](Cc1ccccc1)NC(=O)c1csc([C@@H](C[C@H](C(C)C)N(C)C(=O)[C@@H](NC(=O)[C@H]2CCCCN2C)C(C)(C)C)OC(C)=O)n1", "label 0"],
  ["Nc1nc([Se])c2ncn(C3OC(CO)C(O)C3O)c2n1 (stereo not drawn)", "label 1"]
]}

Category lookup for the molecule Cn1cc(-c2csc(-c3cn(CCCCN4CCCCC4)c4ccc(F)cc34)n2)c2cccnc21 label 0

Category lookup for the molecule Cc1sc2c(c1C)C(c1ccc(Cl)cc1)=N[C@@H](CC(=O)OC(C)(C)C)c1nnc(C)n1-2 label 0

Category lookup for the molecule CCCCCN(CCCCC)CC(O)c1cc(Cl)ccc1OC (stereo not drawn) label 0

---

- Tested on: 786-0 renal
- Procedure text: NCI-60 one-dose screen, 48 h (100 = growth as untreated, 0 = no growth, -100 = all killed)
- Experimental parameters: 10 µM unless noted
About 83,000 compounds went through this panel and 20% of them were active in at least one assay; those are over-represented in the sample as a whole.
Is growth at least 80%? Then 1 (yes). If not, 0 (no).

Solved cases below.
{"columns": ["Compound", "Group label"],
 "data": [
  ["C/C(=C\\c1ccn(-c2ccccc2N)n1)[C@@H]1C[C@@H]2O[C@]2(C)CCC[C@H](C)[C@H](O)[C@@H](C)C(=O)C(C)(C)[C@@H](O)CC(=O)O1", "0 (no)"],
  ["O=C(Nc1ccncc1F)c1cn(CC2CC2)c2ccccc12", "1 (yes)"],
  ["Cn1cccc1C1CC(=O)N(CCC[Se]C#N)C1=O (stereo unspecified)", "0 (no)"],
  ["CC(C)(C)N1CC1C#N (stereo unspecified)", "1 (yes)"],
  ["CNCc1cccnc1", "1 (yes)"]
]}

Decide: is the reported value of growth for COC(=O)[C@@]1(C)CC[C@]2(C)CC[C@]3(C)C4=CC=C5C(=CC(=O)C(O)=C5C)[C@]4(C)CC[C@@]3(C)[C@@H]2C1 equal to or greater than 80%? 0 (no)

Decide: is the reported value of growth for Nc1ccc(Cl)cc1 equal to or greater than 80%? 1 (yes)

Decide: is the reported value of growth for C[CH2][Sn]([Cl])([Cl])[CH2]C.Oc1ccccc1C=NCCN=Cc1ccccc1O equal to or greater than 80%? 1 (yes)

Decide: is the reported value of growth for Nc1nc([Se])c2ncn(C3OC(CO)C(O)C3O)c2n1 (stereo unspecified) equal to or greater than 80%? 0 (no)

Decide: is the reported value of growth for CC1(C)C(C(=O)c2cn(CCCCF)c3ccccc23)C1(C)C equal to or greater than 80%? 1 (yes)
